system: HCC-1954 cells; experiment: Dose-matrix combination assay (synergy score, Loewe model); assay type: cell-based; conditions: combination with DUBA; HCC-1954, 6 d; S ± SD; cutoff ±1
PARAMETER: Synergy score S

O=c1cc(-c2cccc3c2Sc2ccccc2S3)oc(N2CCOCC2)c1 = 2.1±1.2
NC(=O)Nc1cc(-c2cccc(F)c2)sc1C(=O)N[C@H]1CCCNC1 = 3.6±0.4
CNCc1ccc(-c2cc(-c3nc(-c4ccc(S(=O)(=O)C(C)C)cc4)cnc3N)on2)cc1 = 5.3±0.6

Attention now shifts to the item below.
Input: Can you look up the measured Synergy score S of `Nc1nc(NC2CC2)cc(-c2cccc(Cl)c2Cl)n1` for me?
Output: −0.2±0.3

---

test system: HCC-1954 cells; assay: Dose-matrix combination assay (synergy score, Loewe model); assay type: cell-based; details: combination with DUBA; HCC-1954, 6 d; S ± SD; cutoff ±1
Tick condition met if Synergy score S is 2 or greater. Tick condition not met if Synergy score S is less than 2.

Example cases with answers are listed next.
Nc1nc(OCc2cc(Br)cs2)c2[nH]cnc2n1 [Lomeguatrib] = condition not met
COc1cc(-c2cnc(N)c(N3CC[C@@H](C(=O)O)[C@@H](C)[C@H]3C)n2)cc(OC)c1OC [Cmpd31] = condition not met
Cc1c(N)nc([C@H](CC(N)=O)NC[C@H](N)C(N)=O)nc1C(=O)N[C@H](C(=O)N[C@H](C)[C@@H](O)[C@H](C)C(=O)NC(C(=O)NCCc1nc(-c2nc(C(=O)NCCCNCCCCN)cs2)cs1)[C@@H](C)O)[C@@H](O[C@@H]1O[C@@H](CO)[C@@H](O)[C@H](O)[C@@H]1O[C@H]1O[C@H](CO)[C@@H](O)[C@H](OC(N)=O)[C@@H]1O)c1cnc[nH]1 (stereo partly drawn) [Bleomycin A5] = condition not met

Input: Assess whether reported Synergy score S for C=CCn1c(=O)c2cnc(Nc3ccc(N4CCN(C)CC4)cc3)nc2n1-c1cccc(C(C)(C)O)n1 [AZD1775] sits at 2 or higher.
Output: condition not met

Input: Assess whether reported Synergy score S for C[C@@H]1COCCN1c1cc(C2(S(C)(=O)=O)CC2)nc(-c2cccc3[nH]ccc23)n1 [AZ20] sits at 2 or higher.
Output: condition met

---

system: HCC-1954 cells; assay: Dose-matrix combination assay (synergy score, Loewe model); assay type: cell-based; settings: combination with DUBA; HCC-1954, 6 d; S ± SD; cutoff ±1
PARAMETER: Synergy score S
Lab note: jot the number down without any unit.

Input: Can you look up the measured Synergy score S of `C[C@@H]1COCCN1c1cc(C2(S(C)(=O)=O)CC2)c2ccnc(-c3ccn[nH]3)c2n1` for me?
Output: 9.5

Input: Can you look up the measured Synergy score S of `Cc1nc(S(C)(=O)=O)ccc1-c1cc(N2CCOC[C@H]2C)nc2c(-c3ccn[nH]3)nccc12` for me?
Output: 12.4

Input: Can you look up the measured Synergy score S of C[C@@H]1COCCN1c1cc(C2(S(C)(=N)=O)CC2)nc(-c2ccnc3[nH]ccc23)n1 (some centres unmarked) for me?
Output: 6.9

---

test system: NCI-N87 cells; assay: Cytotoxicity (cell viability, CellTiter-Glo, 6 d); format: cell-based; conditions: Homo sapiens; NCI-N87, agent alone, 384-well format (footnote a)
PARAMETER: pIC50
Friendly reminder that pIC50 comes from taking -log10 of the concentration in mol/L.

Input: Can you look up the measured pIC50 of Cc1cccc2c(O)cc3c(c12)[C@H](CCl)CN3C(=O)c1cn2cc(NC(=O)c3ccc(O)cc3)ccc2n1 [compound 10] for me?
Output: 8.92
